Just for reference, patent US7825263B2 is where these values come from.

Collected Emax (% of vehicle), cGMP accumulation in PC12 cells values appear next to each entry.
Tested on: PC12 cells
Experiment: Measurements of cGMP in rat PC12 cell line (cGMP accumulation, enzyme immunoassay)
Assay type: cell-based
Conditions: 45 min exposure, 0.1 to 25 μM test compound, in presence of IBMX (100 μM) and YC-1 (20 μM)

>  <molecule>
COc1ccccc1OCCNCC(COc1cccc2[nH]c3ccccc3c12)OC(=O)c1ccc(CO[N+](=O)[O-])cc1 (centres unmarked) [Compound of example 1]

>  <experimental_result>
480 % of vehicle

$$$$
>  <molecule>
COc1ccccc1OCCN(CC(O)COc1cccc2[nH]c3ccccc3c12)C(=O)CCO[N+](=O)[O-] (centres unmarked) [Compound of example 4]

>  <experimental_result>
395 % of vehicle

$$$$
>  <molecule>
COc1ccccc1OCCN(CC(O)COc1cccc2[nH]c3ccccc3c12)C(=O)CCCCCO[N+](=O)[O-] (centres unmarked) [Compound of example 5]

>  <experimental_result>
322 % of vehicle

$$$$

Please look at the following molecule next.
q: Annotate the molecule COc1ccccc1OCCN(CC(O)COc1cccc2[nH]c3ccccc3c12)C(=O)c1ccc(CO[N+](=O)[O-])cc1 (centres unmarked) [Compound of example 3] with its measured Emax (% of vehicle), cGMP accumulation in PC12 cells.
a: 565 % of vehicle
